Assign LD50 to each entry below.
# METHOD_SUMMARY: Toxicity: LD50 in mice, intraperitoneal route (Log-Probits method of Miller and Tainter)
# STATED_CONDITIONS: mouse, in vivo, IP
Quick note: give the figure in mg/kg, leave out the unit.

For CC(C)=CCCC(O)C=Cc1ccc2c(c1)OCO2 (stereo not drawn) the compound record lists LD50 as 1000

For OC(C=Cc1ccc2c(c1)OCO2)CN1CCOCC1 (stereo not drawn) the compound record lists LD50 as 500

For CC(C)=CC(=O)C=Cc1ccc2c(c1)OCO2 the compound record lists LD50 as 2000

For O=C(C=Cc1ccc2c(c1)OCO2)CN1CCOCC1 the compound record lists LD50 as 750

For OC(C=Cc1ccc2c(c1)OCO2)C1CCCCC1 (stereo not drawn) the compound record lists LD50 as 1000

For CC(CN1CCN(C)CC1)C(O)C=Cc1ccc2c(c1)OCO2 (stereo not drawn) the compound record lists LD50 as 250

For CC(C(O)C=Cc1ccc2c(c1)OCO2)N1CCOCC1 (stereo not drawn) the compound record lists LD50 as 400

For CC(C(=O)C=Cc1ccc2c(c1)OCO2)N1CCOCC1 (stereo not drawn) the compound record lists LD50 as 850

For CC(C)=CCCC(=O)C=Cc1ccc2c(c1)OCO2 the compound record lists LD50 as 2000

For O=C(C=Cc1ccc2c(c1)OCO2)C1CCCCC1 the compound record lists LD50 as 2000

For CC(CN1CCOCC1)C(O)C=Cc1ccc2c(c1)OCO2 (stereo not drawn) the compound record lists LD50 as 600

For CC(CN1CCN(C)CC1)C(=O)C=Cc1ccc2c(c1)OCO2 (stereo not drawn) the compound record lists LD50 as 75
